# credit: patent US20260071002A1

Biological target: T1, human CEACAM5 (human, UniProt P06731 35-685)
T1 construct: whole, on cells; Target on MKN-45 (DSMZ ACC409) and LS180 (ATCC CL-187) cells; also called carcinoembryonic antigen-related cell adhesion molecule 5; CD66e
T1 sequence (looked up): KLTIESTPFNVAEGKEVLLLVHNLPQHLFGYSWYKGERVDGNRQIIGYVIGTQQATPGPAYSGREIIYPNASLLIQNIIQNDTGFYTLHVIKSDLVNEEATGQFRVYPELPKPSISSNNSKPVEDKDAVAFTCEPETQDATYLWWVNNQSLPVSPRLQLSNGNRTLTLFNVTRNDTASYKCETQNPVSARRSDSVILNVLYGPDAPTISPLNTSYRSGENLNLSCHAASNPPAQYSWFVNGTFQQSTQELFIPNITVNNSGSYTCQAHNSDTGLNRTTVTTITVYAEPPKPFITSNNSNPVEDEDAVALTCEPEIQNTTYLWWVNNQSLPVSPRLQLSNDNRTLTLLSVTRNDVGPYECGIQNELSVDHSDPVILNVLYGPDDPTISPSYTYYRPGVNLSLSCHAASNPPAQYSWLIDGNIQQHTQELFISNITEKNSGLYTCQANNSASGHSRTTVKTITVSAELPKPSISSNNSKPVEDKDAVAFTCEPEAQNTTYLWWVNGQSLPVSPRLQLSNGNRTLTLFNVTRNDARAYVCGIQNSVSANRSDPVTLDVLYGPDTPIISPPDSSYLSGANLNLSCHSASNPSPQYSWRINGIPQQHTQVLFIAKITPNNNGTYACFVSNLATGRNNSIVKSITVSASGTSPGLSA
Assay: FACS on MKN-45 cells expressing human CEACAM5
Readings of EC50 for the listed binders
Numbers only; they are read as mg/L.

Some entries whose results are on file:
Summary for this binder, P1AI5029 (antibody, human IgG1, name in Kabat numbering, V domains shown) VH: EVQLVESGGGLVQPGGSLRLSCAASGFNIKDTYMHWVRQAPGKGLEWVGRIDPANGNSKYADSVKGRFTISADTSKNTAYLQMNSLRAEDTAVYYCAPFGYYVSDYAMAYWGQGTTVTVSS VL: EIVLTQSPATLSLSPGERATLSCRAGESVDIFGVGFLHWYQQKPGQAPRLLIYRGSNRATGIPARFSGSGSGTDFTLTISSLEPEDFAVYYCGQTKEDPYTFGQGTKLEIK : EC50 is 1.92

Summary for this binder, P1AI5026 (antibody, human IgG1, name in Kabat numbering, V domains shown) VH: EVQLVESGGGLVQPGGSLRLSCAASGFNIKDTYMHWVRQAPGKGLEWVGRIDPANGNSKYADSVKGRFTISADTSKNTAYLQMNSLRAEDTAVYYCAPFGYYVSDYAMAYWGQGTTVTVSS VL: EIVLTQSPATLSLSPGERATLSCRAGESVDIFGVGFLHWYQQKPGQAPRLLIYRGSNRATGIPARFSGSGSGTDFTLTISSLEPEDFAVYYCGQTTEDPYTFGQGTKLEIK : EC50 is 1.83

More entries:
Summary for this binder, P1AI5030 (antibody, human IgG1, name in Kabat numbering, V domains shown) VH: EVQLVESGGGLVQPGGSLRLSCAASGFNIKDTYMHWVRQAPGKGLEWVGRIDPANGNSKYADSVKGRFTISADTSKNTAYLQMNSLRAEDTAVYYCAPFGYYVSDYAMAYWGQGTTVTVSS VL: EIVLTQSPATLSLSPGERATLSCRAGESVDIFGVGFLHWYQQKPGQAPRLLIYRGSNRATGIPARFSGSGSGTDFTLTISSLEPEDFAYYYCGQTNEDPYTFGQGTKLEIK : EC50 is 11.2
